- ASSAY_PROTOCOL: Maximum plasma concentration was determined after administering 30 mg/kg of compound orally in rat no.6 belonging to phenotype EM (extensive metabolizer)
- Type: ADME, organism-based
- Parameters: dose 30 mg/kg, route oral
- RECORDED_CONDITIONS: po

{"QUERY_SMILES": "COc1cc2ncnc(N3CCN(C(=O)Nc4ccc(C#N)cc4)CC3)c2cc1OC", "Cmax (ng/mL)": 5220}

###

- ASSAY_PROTOCOL: Mean residence time of intravenously administered compound (1 mg/kg) in rat no.3 belonging to phenotype EM (extensive metabolizer)
- Format: ADME, organism-based
- RECORDED_CONDITIONS: in vivo, iv

{"QUERY_SMILES": "COc1cc2ncnc(N3CCN(C(=O)Nc4ccc(C#N)cc4)CC3)c2cc1OC", "VALUE_UNIT": "min", "MRT": 21}
